Data provenance is patent US4616028A.

Items are presented alongside their recorded inhibition in vivo at 25 mg/kg.
Tested on: Phenylquinone Writhing
Experiment: Phenylquinone-induced writhing in mice
Type: in vivo, mouse (male Swiss albino)
Conditions: Mus musculus, po; dose 25 mg/kg, mice (second results table); read-out: Phenylquinone Writhing in Mice percent inhibition
endpoint name: inhibition in vivo at 25 mg/kg (%)

>>> measurement("C=CCC1CCC(CCC)(CC(=O)O)c2[nH]c3c(CC)cccc3c21 (centres unmarked)")
21
>>> measurement("C=CC(C)(C)C1CCC(CC)(CC(=O)O)c2[nH]c3c(F)cccc3c21 (centres unmarked)")
41
>>> measurement("C=CC[C@@H]1CC[C@](CC)(CC(=O)O)c2[nH]c3c(CC)cccc3c21")
5
>>> measurement("C=CC[C@@H]1CC[C@](CC)(CC(=O)O)c2[nH]c3cccc(Br)c3c21 (relative stereo)")
52
>>> measurement("C=CC[C@@H]1CC[C@](CC)(CC(=O)O)c2[nH]c3c(C(C)C)cccc3c21 (relative stereo)")
27

====

Tested on: inflamed paw
Test: Paw Pressure Test in the Rat (Freund's adjuvant inflamed paw, pain threshold)
Assay type: in vivo, rat (male Sprague Dawley)
Settings: po; ED50, rat (second results table)
Items are presented alongside their recorded ED50.
endpoint name: ED50 (mg/kg)

>>> measurement("C=CC[C@@H]1CC[C@](CC)(CC(=O)O)c2[nH]c3ccc(CCCC)cc3c21 (relative stereo)")
0.2
>>> measurement("C=CC[C@@H]1CC[C@](CC)(CC(=O)O)c2c1c1cccc(CC)c1n2C (relative stereo)")
8
>>> measurement("C=CC[C@@H]1CC[C@](CC)(CC(=O)O)c2[nH]c3cc(CC)ccc3c21 (relative stereo)")
0.01
>>> measurement("C=CC[C@@H]1CC[C@](CC)(CC(=O)O)c2[nH]c3c(Cl)c(Cl)ccc3c21 (relative stereo)")
0.08
>>> measurement("C=CC[C@@H]1CC[C@](CC)(CC(=O)O)c2[nH]c3c(CCC)cccc3c21 (relative stereo)")
0.009
>>> measurement("C=CC[C@@H]1CC[C@](CC)(CC(=O)O)c2[nH]c3c(C)c(Cl)ccc3c21 (relative stereo)")
0.007
>>> measurement("C=CCC1CCC(C)(CC(=O)O)c2[nH]c3ccccc3c21 (centres unmarked)")
1.9
>>> measurement("C=CC[C@@H]1CC[C@](CC)(CC(=O)O)c2[nH]c3c(Br)ccc(C)c3c21 (relative stereo)")
0.93
>>> measurement("C=CC[C@H]1CC[C@@](CC)(CC(=O)O)c2[nH]c3c(CC)cccc3c21")
0.011
>>> measurement("C=CC[C@@H]1CC[C@](CC)(CC(=O)O)c2[nH]c3c(C)c(F)ccc3c21 (relative stereo)")
0.1
>>> measurement("C=CC[C@@H]1CC[C@](CC)(CC(=O)O)c2[nH]c3ccc(CC)cc3c21 (relative stereo)")
0.01
>>> measurement("C=CC[C@@H]1CC[C@](CC)(CC(=O)O)c2[nH]c3c(Cl)cccc3c21 (relative stereo)")
0.89
>>> measurement("C=CC[C@H]1CC[C@](CC)(CC(=O)O)c2[nH]c3c(CC)cccc3c21 (relative stereo)")
0.02
>>> measurement("C=CC[C@@H]1CC[C@](CC)(CC(=O)O)c2[nH]c3c(C)cccc3c21 (relative stereo)")
0.33
>>> measurement("C=CC[C@@H]1CC[C@](CC)(CC(=O)O)c2[nH]c3c(Cl)ccc(C)c3c21 (relative stereo)")
0.46
>>> measurement("C=CC[C@@H]1CC[C@](CC)(CC(=O)O)c2[nH]c3cc(Cl)ccc3c21 (relative stereo)")
0.38
>>> measurement("C=CC[C@@H]1CC[C@](CC)(CC(=O)O)c2[nH]c3c(C)ccc(C)c3c21 (relative stereo)")
0.3

====

Test system: Phenylquinone Writhing
Assay: Phenylquinone-induced writhing in mice
Format: in vivo, mouse (male Swiss albino)
Settings: Mus musculus, po; dose 25 mg/kg, mice (second results table); read-out: Phenylquinone Writhing in Mice percent inhibition
endpoint name: inhibition in vivo at 25 mg/kg (%)

>>> measurement("C=CC[C@@H]1CC[C@](CC)(CC(=O)O)c2[nH]c3ccc(F)cc3c21 (relative stereo) [Example 13]")
20
>>> measurement("C=CC[C@@H]1CC[C@](CC)(CC(=O)O)c2[nH]c3c(F)cccc3c21 (relative stereo) [Example 15]")
27
>>> measurement("C=CCC1CCC(C)(CC(=O)O)c2[nH]c3c(CC)cccc3c21 (centres unmarked) [Example 9]")
37
>>> measurement("C=C(C)CC1CCC(CC)(CC(=O)O)c2[nH]c3ccccc3c21 (centres unmarked) [Example 24]")
29
>>> measurement("C=CC(C)(C)C1CCC(CC)(CC(=O)O)c2[nH]c3c(C)c(Cl)ccc3c21 (centres unmarked) [Example 35]")
28
>>> measurement("C=CC[C@@H]1CC[C@](CC)(CC(=O)O)c2[nH]c3c(Br)cccc3c21 (relative stereo) [Example 14]")
38
>>> measurement("C=CC[C@@H]1CC[C@](CC)(CC(=O)O)c2[nH]c3cccc(Cl)c3c21 (relative stereo) [Example 17]")
35
>>> measurement("C=CC[C@H]1CC[C@@](CC)(CC(=O)O)c2[nH]c3c(CC)cccc3c21 [Example 45]")
94
